# melting point annotations

get_value(item= Cc1nnnn1CC(C)n1nnc2cc3c(=O)n(C4CC4)nnc3cc2c1=O (stereo not given) , readout=melting point) returns 208 to 211 °C

// COC(=O)CCCc1cc2cc(Cl)ccc2n1S(=O)(=O)c1cccc2ccccc12 : melting point value = 94 to 97 °C

Note to self: melting point recorded for Cc1nccn1-c1cccc(C2=Nc3cc(O)c(-c4ccccc4F)cc3NC(=O)C2)c1 was > 250 °C

The compound Cn1cc(C(=O)Nc2cc(Cl)ccc2-c2cccc(Cl)c2)c(C(F)(Cl)Cl)n1 showed melting point equal to 145 to 146 °C

compound CCOC(=O)c1cnc(N2CCN(S(=O)(=O)c3ccc4ccccc4c3)CC2)nc1 , melting point observed: > 260 °C

Reported melting point for O=C(Nc1ccc(C(F)(F)F)cc1)N1CC(c2ccc(Cl)cc2)C(c2ccc(Cl)cc2)N1 (stereo not given) was 242 to 243 °C

Reported melting point ( COc1ccc(S(=O)(=O)N2CCc3cccc(-c4ccncc4)c32)cc1 ) = 196 to 197 °C

# melting point (compound: Cc1nn(-c2cccc(N)c2)c2c1C(=O)CC(C)(C)C2 ) is 131 to 132 °C

Entry under test: CCOC(=O)OC1=C(c2c(C)cc(C)cc2C)C(=O)NC1C1CCN(OC)CC1 (stereo not given) . Its melting point was 154 to 155 °C

GET /value?item= Clc1ccc(CCNc2ccc3ccc(NCCc4ccc(Cl)cc4)nc3c2)cc1 &field=melting point returns 55 to 60 °C

The compound listed as COCCOc1ccc(/C=C/CO)c(Oc2ncc(C(F)(F)F)cc2Cl)c1 shows melting point equal to 119 to 121 °C

# melting point (compound: CCOC(=O)c1noc(C(Cc2ccccc2)NC(=O)OC(C)(C)C)n1 (stereo not given) ) is 72 to 76 °C

The compound listed as COC(=O)COc1ccc(SCc2cc(-c3ccc(Cl)cc3)on2)cc1C has a reported melting point of 79 to 80 °C

// recorded melting point for COc1cc(Nc2nccc(-c3nccs3)n2)cc(OC)c1OC : 159 °C

COc1ccc(N2CCN(c3c(C)c(C)c4c(c3C)C(c3ccccn3)C(C)(C)O4)CC2)cc1 (stereo not given) yielded melting point of 123 to 125 °C

Briefly, melting point measured for Clc1cccc(-c2nnc3c4ccc(Cl)cc4c(-c4ccccc4)nn23)c1 : 227 to 230 °C

melting point for CS(=O)(=O)c1nccc(-n2ncc3ccccc32)n1 is 177 to 181 °C

Record O=C(Nc1cc(Cl)cc(Cl)c1O)Nc1cccc(C(F)(F)F)c1Cl . Reported melting point: 161 to 163 °C

Lab note: COC(=O)c1cc(Cl)ccc1-n1cnnc1C gave melting point of 86 to 88.5 °C

Entry under test: CC(CCCCc1ccc(F)cc1)NCc1c(CO)ccc(O)c1CO (stereo not given) . Its melting point was 72 to 77 °C

---

Reported melting point values for a set of molecules

molecule | melting point
CN(C)CCCCNC(=O)Cn1ncc(-c2ccccc2)c1-c1ccccc1 | 77 to 79 °C
O=c1c2ccccc2[nH]c2ccc(O)c(Cl)c12 | 184 to 191 °C
CC1Cc2c(nc3ccc(F)cc3c2C(=O)O)-c2ccc(-c3ccccc3F)cc21 (stereo unspecified) | 274 to 277 °C
Cc1ccc(-n2nc(C(C)(C)C)cc2NC(=O)Nc2ccc(-c3c(C(N)=O)[nH]c4ccccc34)cc2)cc1 | > 260 °C
ClCOc1nc(Cl)c(Cl)cc1Cl | 94 to 96 °C
CCCOc1ccccc1-c1ccc(C(=O)OC)c(=O)[nH]1 | 126 to 128 °C

Cc1c(C)c(C2CC(=O)C=C(O)C2)c(C)c2c1CC(C)(C)O2 (stereo unspecified) yielded melting point of 121 to 123 °C

Value of measured melting point for the entry OC1CSC(=S)N1c1ccccn1 (stereo unspecified) : 110 °C

melting point reading for Nc1nnc(CCCCCBr)s1 : 128 to 130 °C

Notebook: O=c1oc2c([N+](=O)[O-])c(O)c(O)cc2cc1-c1ccccc1 , melting point read as 195 to 210 °C

melting point for COC(=O)c1ccc(O)c([C@H](CCN(C(C)C)C(C)C)c2ccccc2)c1 is 102 °C

---

readout name: melting point (°C)

query smiles | units text | melting point
COc1ccc2c(-c3ccc(OCCN4CCCC4)cc3)c(Cc3ccc(Cl)cc3)oc2c1 | °C | 75
CC(=O)OCCCN1CCC(CNC(=O)[C@@H]2CCCN2S(=O)(=O)c2ccc(Cl)c(COc3cccc4c(-n5ccnc5)cc(C)nc34)c2Cl)CC1 | °C | 96

---

Item-by-item account of melting point
Numbers only; they are read as °C.

query smiles | units text | melting point
Cn1c(C(=O)NC2CCCCC2)nc(-c2ccc(Cl)cc2Cl)c1-c1ccc(Cl)cc1 | °C | 165

Next item in the queue.
Briefly, melting point measured for CC(C)(C)OC(=O)CNc1ccccc1C(=O)c1ccccc1 : 88

---

melting point by entry:

compound | melting point
OC(c1ccccc1)(c1ccccc1Cl)c1nccn1Cc1ccccc1 (centres undefined) | 168 °C

Lookup result for CCOc1c(-c2ccc3cc(NS(C)(=O)=O)ccc3c2)cc(-n2ccc(=O)[nH]c2=O)cc1C(C)(C)C ; measured melting point: 196 to 202 °C

compound COc1ccc(CNc2ccc(Cl)cc2C(=O)C(F)(F)F)cc1OC , melting point observed: 82 to 84 °C

Consider C=CS(=O)(=O)N1CCC(N2N=C(c3ccc(OC)c(OC)c3)[C@H]3CC=CC[C@H]3C2=O)CC1 . Its measured melting point is 89 to 90 °C

// melting point lookup, compound = N#CCC(=O)Nc1ccc(-c2nncn2-c2ccc(F)cc2)cc1 , result: 223 to 225 °C

Lab note: COC1=C(OC)C(=O)C(CCCCCC[C@H]2CC[C@H](O)CC2)=C(C)C1=O gave melting point of 33.5 to 35.5 °C

In plain terms, Cn1cc(-c2ncc(-c3ccc4cc(OCc5nnn[nH]5)ccc4c3)o2)c2ccccc21 has a documented melting point of 254 to 256 °C

Reported melting point for N[C@@H](Cc1ccc(OCc2ccccc2)cc1)C(=O)NCCN1CCCCC1 was 58 to 61 °C

The compound identified as COc1ccc(CN2C(=O)CC2CC(=O)O)c(OC)c1 (centres undefined) registered its melting point at 90 to 91 °C

---

This section presents compounds with their documented melting point values.

compound | melting point
Nc1cc(-c2cccnc2)ccc1S(N)(=O)=O | 240 to 243 °C
CCOC(=O)c1c[nH]c(=O)c2cc(Cl)ccc12 | 243 °C
CCN(CC)C(=O)Nc1ccc(S(=O)(=O)N2C(=O)C(NCCOCCO)(c3ccccc3Cl)c3cc(Cl)ccc32)cc1 (stereo not given) | 114 to 118 °C
COc1ccc(-c2c(C(=O)N3CCOCC3)ccc3cc(Cl)ccc23)cc1OC | 157 to 159 °C
Cc1cccc2c1C(=O)C1(CCOC1=O)S2 (stereo not given) | 106 °C

So for COC(=O)c1sc(C(F)(F)F)cc1OC , the logged melting point turned out to be 78 to 79 °C

The reported value for Cn1c(=O)[nH]c2ccc(-c3cccc([N+](=O)[O-])c3)cc21 in terms of melting point is 264 to 265 °C

// recorded melting point for O=C1C(=O)c2ccccc2C2=C1SCC(CNCCc1ccccc1)O2 (stereo not given) : 80 to 82 °C

Entry under test: COC(=O)c1ccc(C(=O)NCCCCNC(=O)c2ccc(C(=O)OC)cc2)cc1 . Its melting point was 260 to 261 °C

Entry c1ccc(COc2ccc(-c3cc(NC(Cc4ccccc4)c4nnn[nH]4)ncn3)cc2)cc1 (stereo not given) ; melting point = 150 °C

---

readout name: melting point

Some compounds with known melting point results, for comparison:
compound | melting point
Cc1nc2c(cc1NC(=N)N=C=O)CCCCC2CO[N+](=O)[O-] (centres undefined) | 120 to 121 °C
O=[N+]([O-])c1cc(Cl)c(Oc2ccccc2)cc1Oc1ccccc1 | 95 °C

API: the following record is the query input.
Lab book: melting point of CC(C)c1nn(-c2ncccn2)c(-c2ccc(F)cc2)c1Br noted as 130 to 133 °C

---

Here the recorded melting point is given for each entry.

Use these answered entries as a reference point.
compound | melting point
COC(=O)c1ccc(SC(Cn2ccnc2)c2ccc(Cl)cc2Cl)cc1 (stereo not given) | 121 to 124 °C
CCC(CC)N(O)C(=O)Nc1ccc(Cc2ccccc2)cc1 | 132 to 134 °C
CCOc1ccc2[nH]c(SCc3cccn4ccnc34)nc2c1 | 157 to 160 °C
CN(C=O)[C@@H]1CCCc2ccccc21 | 53 to 55 °C

Please turn your attention to the following entry.
// field: melting point; key: O=[N+]([O-])c1ccc(-c2ccc(-c3ccc([N+](=O)[O-])cc3Cl)o2)c(Cl)c1 ; value = 247 to 248 °C
